- Test system: COLO 205 colon
- measurement-protocol: NCI-60 one-dose screen, 48 h (100 = growth as untreated, 0 = no growth, -100 = all killed)
- details: 10 µM unless noted
This is part of a sample that, as a whole, favours compounds with a hit. Of some 83,000 tested, about 20% had one in any assay.
Reported growth values for the following molecules.
result-type: growth (%)

>>> print(df.to_string())
                                   molecule  result_type  numeric_value
0  Cc1cnc(Nc2ccc(OCCN3CCCC3)cc2)nc1Nc1cccc(S(=O)(=O)NC(C)(C)C)c1       growth          -67.6
1  Cc1ccc(NC(=O)NC(=O)CSc2nc3ccccc3nc2C)cc1       growth           81.1
2  Nc1nc(=S)c2ncn(C3OC(COC(=O)c4ccc(Cl)cc4)C(OC(=O)c4ccc(Cl)cc4)C3OC(=O)c3ccc(Cl)cc3)c2[nH]1 (centres undefined)       growth            123
3  Cc1nn(-c2nc3ccccc3[nH]2)c2c1C(c1ccc(OCc3ccc(F)cc3)cc1)CC(=O)N2 (centres undefined)       growth            103

---

Reported growth values for the following molecules.
- Test system: SF-539 CNS
- measurement-protocol: NCI-60 one-dose screen, 48 h (100 = growth as untreated, 0 = no growth, -100 = all killed)
- details: 10 µM unless noted
This is part of a sample that, as a whole, favours compounds with a hit. Of some 83,000 tested, about 20% had one in any assay.
result-type: growth (%)

>>> print(df.to_string())
                                    molecule  test_system  result_type  numeric_value
 0   Clc1ccc2c(NCCCNCc3ccc4c(c3)OCO4)ccnc2c1   SF-539 CNS       growth          -86.7
 1  CCCc1cc2cc(-n3nc(C)c4c3CC(C)(C)CC4=O)cc(NC3CCC(O)CC3)c2c(=O)[nH]1 (centres undefined)   SF-539 CNS       growth           37.8
 2  COc1ccc2c(c1OC)C(=O)O[C@@H]2[C@H]1c2c(c(C#CC#Cc3ccc(F)c(F)c3)c3c(c2OC)OCO3)CCN1C   SF-539 CNS       growth           94.9
 3  CC(C)(C)C(=O)OCOP(=O)(OCOC(=O)C(C)(C)C)C1CCCN(OC(=O)c2ccccc2)C1=O (centres undefined)   SF-539 CNS       growth             53
 4  CN1CCN(c2ccc(C(=O)Nc3n[nH]c4ccc(Cc5cc(F)cc(F)c5)cc34)c(NC3CCOCC3)c2)CC1   SF-539 CNS       growth          -92.4
 5  CCCC(=O)OCC1OC(n2cnc3c(=S)nc(N)[nH]c32)C(OC(=O)CCC)C1OC(=O)CCC (centres undefined)   SF-539 CNS       growth           26.7
 6     Cc1ccc(-c2nc3ccc(Cl)cn3c2NC2CCCCC2)o1   SF-539 CNS       growth           95.4
 7  CCOc1cc2ncc(C#N)c(Nc3ccc(F)c(Cl)c3)c2cc1NC(=O)/C=C/CN(C)C   SF-539 CNS       growth          -85.9
 8  CCc1cnn2c(NCc3ccc[n+]([O-])c3)cc(N3CCCC[C@H]3CCO)nc12   SF-539 CNS       growth          -48.1
 9  C=CCCCOC1[C@H](OCc2ccccc2)C(OCc2ccccc2)C(OC)O[C@@H]1CNC(=O)c1cccc(I)c1 (some centres undefined)   SF-539 CNS       growth           31.8
10  COc1ccc(Br)cc1NC(=O)Nc1cccc2c1ccn2Cc1ccnc(N)c1   SF-539 CNS       growth           27.5
11  CCOC(=O)C1=C(C)N=C2Sc3cccc(OC)c3N2[C@H]1c1ccccn1   SF-539 CNS       growth            103
12  O=C(Cc1ccccc1)Nc1nnc(NC2CCN(c3nnc(NC(=O)Cc4ccccc4)s3)CC2)s1   SF-539 CNS       growth           93.5
13  CC[C@@H]1C(=O)N(C)c2cnc(Nc3ccc(C(=O)NC4CCN(C)CC4)cc3OC)nc2N1C1CCCC1   SF-539 CNS       growth          -82.4

---

- Test system: A498 renal
- measurement-protocol: NCI-60 one-dose screen, 48 h (100 = growth as untreated, 0 = no growth, -100 = all killed)
- details: 10 µM unless noted
Compounds without any hit were thinned out: in the full panel of roughly 83,000, 20% have a hit.

molecule	test-system	quantity-unit	growth
COc1cnc2c(c1)C(=O)c1c-2n(CCCn2ccnc2)c(=O)c2cc(Cl)ccc12	A498 renal	%	-41.2
CC[C@@H]1C(=O)N(C)c2cnc(Nc3ccc(C(=O)NC4CCN(C)CC4)cc3OC)nc2N1C1CCCC1	A498 renal	%	-28.3
COC(=O)[C@H](Cc1ccccc1)NC(=O)[C@@H](OC)[C@@H]1Cc2cc3cc(OC4CC(OC5CC(O)C(O)C(C)O5)C(O)C(C)O4)c(C)c(O)c3c(O)c2C(=O)[C@H]1OC1CC(OC2CC(OC3CC(C)(O)C(O)C(C)O3)C(O)C(C)O2)C(O)C(C)O1 (stereo partly drawn)	A498 renal	%	-40.3
C/C(=C(/c1ccc(Cl)cc1)c1ccc(OCCN2CCCCC2)cc1)c1ccccc1	A498 renal	%	80.3
Clc1ccc(/C=C/c2cc(N3CCOCC3)c3cc(Cl)c(Cl)cc3n2)cc1	A498 renal	%	67.7
Cn1cnc2c(F)c(Nc3ccc(Br)cc3F)c(C(=O)NOCCO)cc21	A498 renal	%	-28.4
CN1CCN(c2nc(NCCNc3ccnc4cc(Cl)ccc34)c3ccccc3n2)CC1	A498 renal	%	102
Cc1[nH]n(C(N)=S)c(=O)c1N=Nc1ccc(S(=O)(=O)Nc2ccncn2)cc1	A498 renal	%	87.4

---

- Tested on: HCT-15 colon
- measurement-protocol: NCI-60 one-dose screen, 48 h
- details: 10 µM unless noted
The panel holds about 83,000 compounds, 20% with a hit somewhere; the sample as a whole holds those more often. Activity calls are given as the source filed them. Rule for the calls: active = growth percent below 10; inactive = the rest.
Outcomes: true (1) = active, false (0) = inactive

>>> df
                                   compound  classification
0  NC1=Nc2cc(OCCCN3Cc4ccccc4C3)c(OCC3CC3)cc2C12CCCC2       false (0)
1  Cc1c(CN2CCN(C(=O)[C@H](C)O)CC2)sc2c(N3CCOCC3)nc(-c3cnc(N)nc3)nc12        true (1)
2  C[C@@H]1COC(Nc2ccc3ncnc(Nc4ccc(OCc5nccs5)c(Cl)c4)c3c2)=N1       false (0)
3  Cn1c(=O)c(F)c(Nc2ccc(I)cc2F)c2c(=O)n(C[C@@H](O)CO)cnc21       false (0)
4  CCN1CCN(c2nc(C)cc(N(CCNc3ccnc4cc(Cl)ccc34)Cc3ccc4c(c3)OCO4)n2)CC1        true (1)
5         CN(N)c1nc2sc3c(c2c(=O)[nH]1)CCCC3       false (0)
6  CCCNC(=O)c1cn2ncnc(Nc3cc(C(=O)NC4CC4)ccc3C)c2c1C       false (0)
7  CCCc1cc2cc(-n3nc(C)c4c3CC(C)(C)CC4=O)cc(NC3CCC(O)CC3)c2c(=O)[nH]1 (centres undefined)       false (0)
8  Cc1ncc(-c2ccnc(Nc3ccc(S(C)(=O)=O)cc3)n2)n1C(C)C        true (1)

---

Reported growth values for the following compounds.
- Test system: BT-549 breast
- measurement-protocol: NCI-60 one-dose screen, 48 h (100 = growth as untreated, 0 = no growth, -100 = all killed)
- details: 10 µM unless noted
The panel holds about 83,000 compounds, 20% with a hit somewhere; the sample as a whole holds those more often.
result-type: growth (%)

In [3]: df
Out[3]:
                                   compound  result_type  numeric_value
0  COc1cc2nccc(Oc3ccc(NC(=O)Nc4cc(C)on4)c(Cl)c3)c2cc1OC       growth           19.6
1  COc1cnc2c(c1)C(=O)c1c-2n(CCCN2CCC(O)CC2)c(=O)c2cc(Cl)ccc12       growth           46.9
2  CCCC(=O)OCC1OC(n2cnc3c(=S)nc(N)[nH]c32)C(OC(=O)CCC)C1OC(=O)CCC (stereo not given)       growth           34.2
3  O=C(CNc1nc2ccccc2s1)Nc1ccc(-c2nc3ccccc3s2)cc1       growth            106
4  COc1cc(N2CCC(N3CCN(C)CC3)CC2)ccc1Nc1ncnc(Nc2ccccc2S(=O)(=O)C(C)C)n1       growth            104
